target: CFTR (Homo sapiens, UniProt P13569, DEL508-508); construct: endogenous in cells; host or cells: primary human bronchial epithelial cells from CF subjects (F508del/MF-HBE), differentiated at air-liquid interface; test: HBE assay: Ussing chamber assay of CFTR-mediated short-circuit currents; format: cell-based; details: HBE assay; read-out: HBE Max activity (%)
READOUT_TYPE: Emax

Some solved entries appear below for comparison.
COMPOUND	TARGET_OR_TEST_SYSTEM	Emax
Cc1cccc(C)c1-c1cc2nc(n1)NS(=O)(=O)c1cccc(c1)C(=O)N(Cc1cncc(N(C)C3CCOC3)n1)[C@H](CC(C)(C)C)CO2 (stereo partly drawn)	CFTR (Homo sapiens, UniProt P13569, DEL508-508)	> 60%
COCCN(CC(C)C)c1cccc(CN2C(=O)c3cccc(c3)S(=O)(=O)Nc3nc(cc(-c4c(C)cccc4C)n3)OC[C@H]2CC(C)(C)C)n1	CFTR (Homo sapiens, UniProt P13569, DEL508-508)	> 60%

Item: Cc1cccc(C)c1-c1cc2nc(n1)NS(=O)(=O)c1cccc(c1)C(=O)N(Cc1ncc(OCC(F)(F)F)cn1)[C@H](CC(C)(C)C)CO2 Test system: CFTR (Homo sapiens, UniProt P13569, DEL508-508) Read-out: Emax Value: ? > 60%

---

target: CFTR (Homo sapiens, UniProt P13569); assay: Membrane potential dye, Enteroid Assay A; assay type: cell-based; conditions: Table 9; read-out: Ent. A EC50
Sequence (P13569 with tags, fused parts or gaps DEL508-508): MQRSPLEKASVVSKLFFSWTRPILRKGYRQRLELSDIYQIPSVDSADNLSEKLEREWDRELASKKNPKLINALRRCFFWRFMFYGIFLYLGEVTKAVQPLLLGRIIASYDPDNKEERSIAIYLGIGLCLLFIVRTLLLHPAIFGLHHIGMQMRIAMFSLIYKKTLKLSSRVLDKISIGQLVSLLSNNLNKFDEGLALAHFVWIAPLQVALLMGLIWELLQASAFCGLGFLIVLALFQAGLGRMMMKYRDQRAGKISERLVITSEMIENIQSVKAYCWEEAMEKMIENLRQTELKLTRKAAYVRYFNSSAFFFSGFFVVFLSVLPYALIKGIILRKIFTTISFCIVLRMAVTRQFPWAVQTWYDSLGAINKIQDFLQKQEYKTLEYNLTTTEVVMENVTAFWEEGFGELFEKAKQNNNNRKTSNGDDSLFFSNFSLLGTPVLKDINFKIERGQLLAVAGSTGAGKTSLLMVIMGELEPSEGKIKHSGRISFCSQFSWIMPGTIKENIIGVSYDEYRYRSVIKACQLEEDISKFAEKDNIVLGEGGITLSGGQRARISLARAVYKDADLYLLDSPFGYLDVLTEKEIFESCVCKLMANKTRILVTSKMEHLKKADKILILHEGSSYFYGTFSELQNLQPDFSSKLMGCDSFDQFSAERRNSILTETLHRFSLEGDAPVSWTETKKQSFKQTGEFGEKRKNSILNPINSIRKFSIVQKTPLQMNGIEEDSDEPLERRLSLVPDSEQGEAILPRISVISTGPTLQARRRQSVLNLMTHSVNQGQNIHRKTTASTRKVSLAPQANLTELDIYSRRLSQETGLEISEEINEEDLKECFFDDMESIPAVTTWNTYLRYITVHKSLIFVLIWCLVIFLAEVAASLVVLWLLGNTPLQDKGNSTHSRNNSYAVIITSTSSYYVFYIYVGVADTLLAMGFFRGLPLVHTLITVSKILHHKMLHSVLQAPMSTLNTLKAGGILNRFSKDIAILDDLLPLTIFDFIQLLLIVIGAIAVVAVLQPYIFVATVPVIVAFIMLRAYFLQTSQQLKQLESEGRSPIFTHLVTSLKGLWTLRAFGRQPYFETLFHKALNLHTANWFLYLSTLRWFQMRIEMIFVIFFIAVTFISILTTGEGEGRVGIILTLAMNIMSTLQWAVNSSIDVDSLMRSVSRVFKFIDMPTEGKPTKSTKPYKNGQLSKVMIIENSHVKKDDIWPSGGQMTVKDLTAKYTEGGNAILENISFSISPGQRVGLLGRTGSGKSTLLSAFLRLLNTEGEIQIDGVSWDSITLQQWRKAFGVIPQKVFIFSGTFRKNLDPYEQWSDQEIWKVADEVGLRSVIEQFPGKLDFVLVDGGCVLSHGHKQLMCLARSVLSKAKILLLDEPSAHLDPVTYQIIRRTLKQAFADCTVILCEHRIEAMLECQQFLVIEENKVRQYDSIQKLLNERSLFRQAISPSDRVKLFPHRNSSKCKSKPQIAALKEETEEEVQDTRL
READOUT_TYPE: EC50

// lookup EC50 for CCN1C(=O)c2cccc(c2)S(=O)(=O)Nc2nc(cc(-c3c(C)cccc3C)n2)O[C@@H]2CN(C3CC4(CCCC4)C3)C[C@H]21 < 1000 nM

---

# key: entry, value: EC50
biological target: CFTR (Homo sapiens, UniProt P13569, DEL508-508); construct: endogenous in cells; host or cells: primary human bronchial epithelial cells from CF subjects (F508del/MF-HBE), differentiated at air-liquid interface; assay: HBE assay: Ussing chamber assay of CFTR-mediated short-circuit currents; type: cell-based; settings: Table 10; read-out: HBE EC50

Sample records with EC50:
Cc1cccc(C)c1-c1cc2nc(n1)NS(=O)(=O)c1cccc(c1)C(=O)N(Cc1ncccc1-c1cn[nH]c1)[C@H](CC(C)(C)C)CO2 < 1000 nM
Cc1cccc(C)c1-c1cc2nc(n1)NS(=O)(=O)c1cccc(c1)C(=O)N(Cc1ncccc1N(C)C)[C@H](CC(C)(C)C)CO2 < 1000 nM
Cc1cccc(C)c1-c1cc2nc(n1)NS(=O)(=O)c1cccc(c1)C(=O)N(Cc1ccc(OCC(C)(C)C)cn1)[C@H](CC(C)(C)C)CO2 1000 to 3000 nM
Cc1cccc(C)c1-c1cc2nc(n1)NS(=O)(=O)c1cccc(c1)C(=O)N(Cc1cnccc1N1CCOCC1)[C@H](CC(C)(C)C)CO2 < 1000 nM

Could you now consider this next compound?
Value lookup for EC50; key = CNc1cccc(CN2C(=O)c3cccc(c3)S(=O)(=O)Nc3nc(cc(-c4c(C)cccc4C)n3)OC[C@H]2CC(C)(C)C)n1 < 1000 nM

---

target: CFTR (Homo sapiens, UniProt P13569); experiment: Membrane potential dye, Enteroid Assay A; assay type: cell-based; details: Table 7; chloride transport as % of triple combination control (Enteroid Assay A)
READOUT_TYPE: Ent. A Max Activity

Use these answered entries as a reference point.
COMPOUND	Ent. A Max Activity
Cc1cccc(C)c1-c1cc2nc(n1)NS(=O)(=O)c1cccc(c1)C(=O)N(C)C[C@H](c1ccc(C(C)(C)C)cn1)O2 (single isomer, unassigned) [Compound 103]	+++ (+++ is >60%)
Cc1cccc(C)c1-c1cc2nc(n1)NS(=O)(=O)c1cccc(c1)C(=O)N(Cc1ccc(N3CCC(C)(C)CC3)nc1)[C@H](CC(C)C)CO2 [Compound 940]	+++ (+++ is >60%)
Cc1cccc(C)c1-c1cc2nc(n1)NS(=O)(=O)c1cccc(c1)C(=O)N(Cc1ccc(N3CC[C@@H](O)C3)nc1)[C@H](CC(C)C)CO2 [Compound 955]	+++ (+++ is >60%)
Cc1cccc(C)c1-c1cc2nc(n1)NS(=O)(=O)c1cccc(c1)CN(C(=O)CC1CCCCC1)[C@H](CC(C)C)CO2 [Compound 1050]	+ (+ is <30%)
Cc1cccc(C)c1-c1cc2nc(n1)NS(=O)(=O)c1cccc(c1)C(=O)N(Cc1ccc(NCCN(C)C)nc1)[C@H](CC(C)C)CO2 [Compound 944]	+++ (+++ is >60%)
Cc1cccc(C)c1-c1cc2nc(n1)NS(=O)(=O)c1cccc(c1)C(=O)N(Cc1cn(C)nc1C(C)(C)C)[C@H](CC(C)C)CO2 [Compound 83]	+++ (+++ is >60%)
Cc1cccc(C)c1-c1cc2nc(n1)NS(=O)(=O)c1cccc(c1)C(=O)N(Cc1ccc(N3CCC(C(C)(C)C)CC3)nc1)[C@H](CC(C)C)CO2 [Compound 941]	+++ (+++ is >60%)
Cc1cccc(C)c1-c1cc2nc(n1)NS(=O)(=O)c1cccc(c1)C(=O)N(Cc1ccc(N(C)CCN(C)C)nc1)[C@H](CC(C)C)CO2 [Compound 943]	+++ (+++ is >60%)

Requested read-out: Ent. A Max Activity. Entry: Cc1cccc(C)c1-c1cc2nc(n1)NS(=O)(=O)c1cccc(c1)C(=O)N(Cc1ccncc1)[C@H](CC(C)C)CO2 [Compound 1106] +++ (+++ is >60%)

Request the reported Ent. A Max Activity associated with COCCN1Cc2cccc(c2)S(=O)(=O)Nc2nc(cc(-c3c(C)cccc3C)n2)OC[C@H]1CC(C)C [Compound 1042] + +

Fill in the blank: the reported Ent. A Max Activity of Cc1cccc(C)c1-c1cc2nc(n1)NS(=O)(=O)c1cccc(c1)C(=O)N(C)C[C@H](c1ccc(-c3ccc(C(C)(C)C)cc3)cn1)O2 [Compound 509] is ____. + (+ is <30%)

---

target: CFTR (Homo sapiens, UniProt P13569, DEL508-508); construct: endogenous in cells; host or cells: primary human bronchial epithelial cells from CF subjects (F508del/MF-HBE), differentiated at air-liquid interface; experiment: HBE assay: Ussing chamber assay of CFTR-mediated short-circuit currents; assay type: cell-based; settings: read-out: HBE Activity at 10 μM (%)
READOUT_TYPE: activation at 10 µM

COMPOUND	activation at 10 µM
COCCN(CCOC)c1cccc(CN2C(=O)c3cccc(c3)S(=O)(=O)Nc3nc(cc(-c4c(C)cccc4C)n3)OC[C@H]2CC(C)(C)C)n1	> 60%
COCC1CCCN1c1cccc(CN2C(=O)c3cccc(c3)S(=O)(=O)Nc3nc(cc(-c4c(C)cccc4C)n3)OC[C@H]2CC(C)(C)C)n1 (stereo partly drawn)	> 60%
Cc1cccc(C)c1-c1cc2nc(n1)NS(=O)(=O)c1cccc(c1)C(=O)N(Cc1cncc(N3CCCC[C@@H]3C3CC3)n1)[C@H](CC(C)(C)C)CO2	> 60%
Cc1cccc(C)c1-c1cc2nc(n1)NS(=O)(=O)c1cccc(c1)C(=O)N(Cc1cncc(N3CCCC[C@H]3C3CC3)n1)[C@H](CC(C)(C)C)CO2	> 60%
COC[C@H]1CCCCN1c1cncc(CN2C(=O)c3cccc(c3)S(=O)(=O)Nc3nc(cc(-c4c(C)cccc4C)n3)OC[C@H]2CC(C)(C)C)n1	> 60%

With those in mind, consider the next compound.
Quick one: activation at 10 µM of Cc1cccc(C)c1-c1cc2nc(n1)NS(=O)(=O)c1cccc(c1)C(=O)N(CC1CC(N3CC(C)OC(C)C3)C1)[C@H](CC(C)(C)C)CO2 (stereo partly drawn) ? > 60%

---

Recorded activation at 10 µM, one value per entry.
target: CFTR (Homo sapiens, UniProt P13569, DEL508-508); construct: endogenous in cells; host or cells: primary human bronchial epithelial cells from CF subjects (F508del/MF-HBE), differentiated at air-liquid interface; assay: HBE assay: Ussing chamber assay of CFTR-mediated short-circuit currents; format: cell-based; details: Table 11; at 10 μM; read-out: HBE Activity at 10 μM (%)

Solved cases (5 shown):
COMPOUND	VAL
Cc1cccc(C)c1-c1cc2nc(n1)NS(=O)(=O)c1cccc(c1)C(=O)N(CC1CCC(C)(C)OC1)[C@H](CC(C)(C)C)CO2 (single isomer, unassigned)	> 60%
Cc1cccc(C)c1-c1cc2nc(n1)NS(=O)(=O)c1cccc(c1)C(=O)N(CC1CC(C)(C)CO1)[C@H](CC(C)(C)C)CO2 (stereo partly drawn)	> 60%
Cc1cccc(C)c1-c1cc2nc(n1)NS(=O)(=O)c1cccc(c1)C(=O)N(Cc1cc3ccccn3n1)[C@H](CC(C)(C)C)CO2	< 30%
Cc1cccc(C)c1-c1cc2nc(n1)NS(=O)(=O)c1cccc(c1)C(=O)N(Cc1nccc(N3CCC(C)(C)CC3)n1)[C@H](CC(C)(C)C)CO2	> 60%
Cc1cccc(C)c1-c1cc2nc(n1)NS(=O)(=O)c1cccc(c1)C(=O)N(CC1CCC(C)(C)O1)[C@H](CC(C)(C)C)CO2 (single isomer, unassigned)	> 60%

Now examine the next entry.
Reported activation at 10 µM for Cc1cccc(C)c1-c1cc2nc(n1)NS(=O)(=O)c1cccc(c1)C(=O)N(CC1CC(C)(C)CCO1)[C@H](CC(C)(C)C)CO2 (single isomer, unassigned) : what is it? > 60%
